Tested on: RPMI-8226 cells
Test: Antiproliferative activity, CCK-8 assay
Type: cell-based
Settings: Homo sapiens, 144 hours incubation, CCK-8, absorbance at 450 nm
RESULT_TYPE: IC50 (µM)

CN1Cc2c(cccc2[N+](=O)[O-])C(=O)N1C1CCC(=O)NC1=O (stereo not shown) | 0.457

[a] Nc1cccc2c1C(=O)N(C1CCC(=O)NC1=O)C2=O (stereo not shown) [Pomalidomide, reference compound]
[b] CN1Cc2c(N)cc(F)cc2C(=O)N1C1CCC(=O)NC1=O (stereo not shown)
[c] CN1Cc2cc([N+](=O)[O-])ccc2C(=O)N1C1CCC(=O)NC1=O (stereo not shown)
[d] CN1Cc2c(NCc3ccc(CN4CCN(c5ccc(C#N)c(F)c5)CC4)cc3)cccc2C(=O)N1C1CCC(=O)NC1=O (stereo not shown)
Hey, quick one: sort these by IC50, largest value first please. Return the labels ranked in the requested order, please.
c, a, b, d
(c: 2.97 µM, a: 0.729 µM, b: 0.499 µM, d: 0.308 µM)

[1] CN1Cc2c(NCc3ccc(CN4CCN(C(=O)OC(C)(C)C)CC4)cc3)cccc2C(=O)N1C1CCC(=O)NC1=O (stereo not shown)
[2] CN1Cc2cc(N)ccc2C(=O)N1C1CCC(=O)NC1=O (stereo not shown)
Hi, I'm comparing 1 with 2 and wondering which one has the bigger number for IC50. Any idea? Pick one; state its label.
1
(1: 0.641 µM, 2: 0.38 µM)
